Numbers sourced from ChEMBL document CHEMBL1201862.

- System: T47D
- assay: NCI tumour cell line growth inhibition, 48 h
The source made the active and inactive calls. No stated cut-off is given here; in the data, active = GI50 up to about 1.1 µM and inactive = higher.
Possible outcomes: 1.0 for active, 0.0 for inactive

INSERT INTO assay_data (compound, assigned_class) VALUES
  ('Cc1ccc2nc(Cl)c(/C=N/N3C(=O)/C(=C/c4cccc([N+](=O)[O-])c4)N=C3c3ccccc3)cc2c1', 0.0),
  ('O=C(CCCl)NN=C1NCCN1', 0.0),
  ('Clc1ccc(CCNCCNC2(c3cc4ccccc4s3)CCCCC2)cc1Cl', 0.0),
  ('COc1cc(N(CCC#N)CCC#N)ccc1/C=C1\SC(=S)NC1=O', 0.0),
  ('COc1cc2cc(C(=O)N3CC(CCl)c4ccc(O)cc43)[nH]c2c(OC)c1OC (stereo not drawn)', 1.0),
  ('CCN(CC)CCNc1ccc2nnn3c4ccc(O)cc4c(=O)c1c23', 0.0),
  ('c1ccc(C(CCN2CCCC2)c2ccccn2)cc1 (stereo not drawn)', 0.0),
  ('COC(=O)C1=C(OC(=O)/C(=C/c2ccccc2)c2ccc(Cl)cc2)C(C(=O)OC)[C@@]2(O)[C@@H](C(=O)OC)[C@H](C)C[C@@H]1[C@@H]2C(=O)OC (stereo partly drawn)', 0.0);

###

Listing: GI50 of selected molecules
- System: A498
- assay: NCI tumour cell line growth inhibition, 48 h
Calls of active or inactive are those of the source. Cut-off read from the data, not from the text of the source: active = GI50 up to about 1.1 µM and inactive = higher.
reported_property: GI50

INSERT INTO assay_data (structure_smiles_string, study_system, test_value) VALUES
  ('Nc1nc(CCC(=O)Nc2cccc(C(F)(F)F)c2)cc(-c2ccc3ccccc3c2)n1', 'A498', '> 100 µM (inactive)'),
  ('Clc1ccc(CCNCCNC2(c3cc4ccccc4s3)CCCCC2)cc1Cl', 'A498', '1.78 µM (inactive)'),
  ('O=C(O)C[C@@H]1[C@@H](O)[C@@H](O)CN2C(=O)c3ccccc3[C@H]12', 'A498', '> 100 µM (inactive)'),
  ('Cc1ccc2nc(Cl)c(/C=N/N3C(=O)/C(=C/c4cccc([N+](=O)[O-])c4)N=C3c3ccccc3)cc2c1', 'A498', '7.71 µM (inactive)'),
  ('CC[C@H](O)[C@H](C)C=C1SCCCS1', 'A498', '> 100 µM (inactive)');

###

- System: SK-MEL-2
- assay: NCI tumour cell line growth inhibition, 48 h
Active and inactive are the calls of the source. Rule as the data show it: active = GI50 up to about 1.1 µM and inactive = higher.
Listing: GI50 of selected compounds
reported_property: GI50

INSERT INTO assay_data (compound, test_value) VALUES
  ('COc1ccc(OC)c2c(C(=O)O)c(C(C)c3ccccc3)ccc12 (stereo not given)', '> 100 µM (inactive)'),
  ('COC(=O)C(C(=O)C(=O)Nc1ccc(Br)cc1)c1nc2ccc(Cl)cc2nc1O (stereo not given)', '> 100 µM (inactive)'),
  ('CCCCN(CCCC)C(=O)C(=O)CC(=O)c1ccc(Br)cc1', '> 100 µM (inactive)'),
  ('CC(C)c1cccc(C(C)C)c1NC(=O)/C(Cc1nc2ccc(Cl)cc2nc1O)=N\NC(=O)C[N+](C)(C)C', '> 100 µM (inactive)'),
  ('COC1(OC)CCC2C1C1CCC(OC)(OC)C21 (stereo not given)', '> 50 µM (inactive)'),
  ('COc1ccc2oc3cccc(NCCN(C)C)c3c(=O)c2c1', '16.5 µM (inactive)'),
  ('CC1=C[C@H]([C@H]2C=C(C)C(C(N)=O)=CN2Cc2c(Cl)cccc2Cl)N(Cc2c(Cl)cccc2Cl)C=C1C(N)=O', '> 75 µM (inactive)'),
  ('CO/C(=N\N=C\c1ccccc1F)c1ccncc1', '> 10 µM (inactive)'),
  ('C=C1C(=O)OC2CC1CCC1(C)OC1CCC(C)=CCCC2(C)O (stereo not given)', '6.12 µM (inactive)'),
  ('CCOC(=O)NN(C(=O)OCC)c1ccc(/N=N/c2ccc(OC)cc2)n1C', '10.8 µM (inactive)');
